Each recorded value in this set is attributed to patent US20160264593A1.

- EXPERIMENT_NOTES: in vivo
- MEASUREMENT_PARAMETERS: male, Sprague-Dawley (SD), rat, in vivo, po, 10 mg/kg, AUC0-t of 100
- Method: A pharmacokinetic study of 151 was conducted in SD rats. The study consisted of two dose levels at 1.0 (iv) and 10 (oral) mg/kg. The blood samples were collected at predetermined times from rats and centrifuged to separate plasma. […] The pharmacokinetic parameters of 151 following iv and oral administration to SD rats were calculated. The absolute bioavailability was evaluated. […] Quantification was achieved by the external standard method. […]
PROPERTY_MEASURED: AUC(0-t) (ng·h/mL)
Hi! Could you send only the number? It should be in ng·h/mL, unit omitted.

Which AUC(0-t) value belongs to CN1CCN(C(=O)C2C3CCC(O3)C2C(=O)O)CC1 (stereo not shown) [Compound 100] ?
3370
